Where do the numbers come from? From patent EP2949653A1.

- Measured on: UniProt P09917
- Sequence (P09917 whole entry): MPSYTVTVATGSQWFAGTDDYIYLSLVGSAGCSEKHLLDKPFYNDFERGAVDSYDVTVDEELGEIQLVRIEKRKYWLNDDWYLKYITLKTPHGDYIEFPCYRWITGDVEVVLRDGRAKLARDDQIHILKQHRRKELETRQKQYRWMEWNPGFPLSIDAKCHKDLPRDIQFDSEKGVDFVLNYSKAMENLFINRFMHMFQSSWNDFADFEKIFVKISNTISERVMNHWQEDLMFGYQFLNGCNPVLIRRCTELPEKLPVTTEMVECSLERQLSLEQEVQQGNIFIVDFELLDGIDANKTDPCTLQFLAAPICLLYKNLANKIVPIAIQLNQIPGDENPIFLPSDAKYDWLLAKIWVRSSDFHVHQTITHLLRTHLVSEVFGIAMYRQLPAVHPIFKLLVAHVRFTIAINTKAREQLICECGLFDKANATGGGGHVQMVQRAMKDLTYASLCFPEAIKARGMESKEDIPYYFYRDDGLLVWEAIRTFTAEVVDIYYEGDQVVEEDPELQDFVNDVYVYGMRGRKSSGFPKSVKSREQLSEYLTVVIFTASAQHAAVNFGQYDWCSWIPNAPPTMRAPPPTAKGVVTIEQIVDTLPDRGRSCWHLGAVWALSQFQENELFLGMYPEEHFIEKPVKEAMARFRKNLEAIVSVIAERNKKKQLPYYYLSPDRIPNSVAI
- Assay info: 5-LO mediated product synthesis in HEK293 cells transfected with only 5-LO
- Assay type: cell-based
- Applied conditions: 2.5 µM A23187 plus 3 µM AA (Figure 7)
Test readout: IC50

>>> reported_measurement("O=C(O)c1noc(-c2ccc(OCc3ccc4ccccc4n3)cc2)c1-c1ccc(Cl)cc1")
"900 nM"

====

- Measured on: UniProtKB P20292
- Sequence (P20292 whole entry): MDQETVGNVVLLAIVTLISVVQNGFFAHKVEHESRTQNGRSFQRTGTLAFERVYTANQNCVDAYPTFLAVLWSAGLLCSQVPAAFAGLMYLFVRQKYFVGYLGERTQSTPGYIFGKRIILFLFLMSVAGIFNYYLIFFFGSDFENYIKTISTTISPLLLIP
- Assay info: 5-LO mediated product synthesis in HEK293 cells transfected with 5-LO plus FLAP
- Applied conditions: 2.5 µM A23187 plus 3 µM AA (Figure 7)
Test readout: IC50 (nM)

>>> reported_measurement("O=C(O)c1noc(-c2ccc(OCc3ccc4ccccc4n3)cc2)c1-c1ccc(Cl)cc1")
310
